All values here come from patent US20260242478A1.

Field: Phage binding ELISA, Anti-CD28 Fab signal in the presence of CD28. Provide a value for each of the binders that follow.
Molecular target: T1, Anti-CD28 Fab (SEQ ID NOs: 696, 697)
T1 construct: Used biotinylated and captured on neutravidin coated plates in the phage ELISA
T1 sequence (VH, as listed by the source, chain 1 of 2): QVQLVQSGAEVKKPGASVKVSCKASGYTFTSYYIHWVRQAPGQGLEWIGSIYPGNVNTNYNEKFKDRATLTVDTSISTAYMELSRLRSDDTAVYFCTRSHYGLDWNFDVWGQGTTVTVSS
T1 sequence (VL, as listed by the source, chain 2 of 2): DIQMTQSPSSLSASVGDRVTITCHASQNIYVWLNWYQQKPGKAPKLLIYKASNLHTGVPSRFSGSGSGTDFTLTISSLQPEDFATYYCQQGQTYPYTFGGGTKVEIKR
Experiment: phage ELISA; Fab on plate pre-incubated with CD28 antigen as competitor, anti-M13 HRP detection
Where no end group is shown, it is not given here.
// no unit string in output, number only

Looking for the measured Phage binding ELISA, Anti-CD28 Fab signal in the presence of CD28 of YCEGHFGMYMSKCL (cysteine pairing not given here; also: fused to phage pIII protein, pIII and linker sequence not given here, Peptide-87 library clone on clonal phage (crude supernatant); not shown: fused to the pIII filament protein of the bacteriophage) [Phage-1280] , can you help?
0.07

Looking for the measured Phage binding ELISA, Anti-CD28 Fab signal in the presence of CD28 of YCEGHAQQYMLKCL (cysteine pairing not given here; also: fused to phage pIII protein, pIII and linker sequence not given here, Peptide-87 library clone on clonal phage (crude supernatant); not shown: fused to the pIII filament protein of the bacteriophage) [Phage-1278] , can you help?
0.05

Looking for the measured Phage binding ELISA, Anti-CD28 Fab signal in the presence of CD28 of YCDGHNPVYLAKCL (cysteine pairing not given here; also: fused to phage pIII protein, pIII and linker sequence not given here, Peptide-87 library clone on clonal phage (crude supernatant); not shown: fused to the pIII filament protein of the bacteriophage) [Phage-1277] , can you help?
0.08

Looking for the measured Phage binding ELISA, Anti-CD28 Fab signal in the presence of CD28 of YCDGHHLEYIDKCL (cysteine pairing not given here; also: fused to phage pIII protein, pIII and linker sequence not given here, Peptide-87 library clone on clonal phage (crude supernatant); not shown: fused to the pIII filament protein of the bacteriophage) [Phage-1285] , can you help?
0.06

Looking for the measured Phage binding ELISA, Anti-CD28 Fab signal in the presence of CD28 of YCAGHSVQYMYKCL (cysteine pairing not given here; also: fused to phage pIII protein, pIII and linker sequence not given here, Peptide-87 library clone on clonal phage (crude supernatant); not shown: fused to the pIII filament protein of the bacteriophage) [Phage-1279] , can you help?
0.06

Looking for the measured Phage binding ELISA, Anti-CD28 Fab signal in the presence of CD28 of YCEGHLPWYMSKCL (cysteine pairing not given here; also: fused to phage pIII protein, pIII and linker sequence not given here, Peptide-87 library clone on clonal phage (crude supernatant); not shown: fused to the pIII filament protein of the bacteriophage) [Phage-1284] , can you help?
0.09

Looking for the measured Phage binding ELISA, Anti-CD28 Fab signal in the presence of CD28 of YCAGHLPQYVSKCL (cysteine pairing not given here; also: fused to phage pIII protein, pIII and linker sequence not given here, Peptide-87 library clone on clonal phage (crude supernatant); not shown: fused to the pIII filament protein of the bacteriophage) [Phage-1283] , can you help?
0.06

Looking for the measured Phage binding ELISA, Anti-CD28 Fab signal in the presence of CD28 of YCAGHIGEYMDKCL (cysteine pairing not given here; also: fused to phage pIII protein, pIII and linker sequence not given here, Peptide-87 library clone on clonal phage (crude supernatant); not shown: fused to the pIII filament protein of the bacteriophage) [Phage-1275] , can you help?
0.58
